Listed next: entries and their corresponding growth.
Tested on: SNB-19 CNS
protocol: NCI-60 one-dose screen, 48 h (100 = growth as untreated, 0 = no growth, -100 = all killed)
condition-set: 10 µM unless noted
Compounds without any hit were thinned out: in the full panel of roughly 83,000, 20% have a hit.
property: growth (%)

compound: COc1ccc(-c2cc3c(oc2=O)-c2ccccc2OC3OC(C)=O)cc1 (stereo unspecified)
target-entity: SNB-19 CNS
property: growth
unit-label: %
observed-result: 98
//
compound: CO[C@H](C(=O)N[C@@H](CCCCNC(=O)OCc1ccccc1)C(=O)OC(C)(C)C)[C@@H]1Cc2cc3cc(OC4CC(OC5CC(O)C(O)C(C)O5)C(O)C(C)O4)c(C)c(O)c3c(O)c2C(=O)[C@H]1OC1CC(OC2CC(OC3CC(C)(O)C(O)C(C)O3)C(O)C(C)O2)C(O)C(C)O1 (stereo partly specified)
target-entity: SNB-19 CNS
property: growth
unit-label: %
observed-result: -51.6
//
compound: CO[C@H]1C[C@@H]2CC[C@@H](C)[C@@](O)(O2)C(=O)C(=O)N2CCCC[C@H]2C(=O)O[C@H]([C@H](C)C[C@@H]2CC[C@@H](OP(C)(C)=O)[C@H](OC)C2)CC(=O)[C@H](C)/C=C(\C)[C@@H](O)[C@@H](OC)C(=O)[C@H](C)C[C@H](C)\C=C/C=C/C=C/1C
target-entity: SNB-19 CNS
property: growth
unit-label: %
observed-result: 53
//
compound: Cc1ccc(-c2nc3ccc(Cl)cn3c2NC2CCCCC2)o1
target-entity: SNB-19 CNS
property: growth
unit-label: %
observed-result: 97.4
//
compound: Cn1cnc2c(F)c(Nc3ccc(Br)cc3F)c(C(=O)NOCCO)cc21
target-entity: SNB-19 CNS
property: growth
unit-label: %
observed-result: 51.3
//
compound: O=C1/C(=C\c2cccc(OCCCCCOc3ccc(Cl)cc3)c2)N=C2SCCCN12
target-entity: SNB-19 CNS
property: growth
unit-label: %
observed-result: 75
//
compound: Cc1ccc(N=C2CSc3nnc(-c4csc5c4CCCC5)n3N2)cc1
target-entity: SNB-19 CNS
property: growth
unit-label: %
observed-result: 35.7
//
compound: COc1cc2c(cc1OCCCCCN1CCN(c3ncnc4ccccc34)CC1)N=CC1CCCN1C2=O (stereo unspecified)
target-entity: SNB-19 CNS
property: growth
unit-label: %
observed-result: 12.6
//
compound: COc1cnc2c(c1)C(=O)c1c-2n(CCCN2CCC(O)CC2)c(=O)c2cc(Cl)ccc12
target-entity: SNB-19 CNS
property: growth
unit-label: %
observed-result: 34.2
//
compound: CCOc1cccc(/C=N/NC(=O)c2ccccc2Nc2ccnc(C(F)(F)F)c2)c1O
target-entity: SNB-19 CNS
property: growth
unit-label: %
observed-result: 21.1
//
compound: CN(c1ncccc1CNc1nc(Nc2ccc3c(c2)CC(=O)N3)ncc1C(F)(F)F)S(C)(=O)=O
target-entity: SNB-19 CNS
property: growth
unit-label: %
observed-result: 7.98
//
compound: CCc1cc2c(c3ccc(C(=O)CBr)cc13)CCCC2
target-entity: SNB-19 CNS
property: growth
unit-label: %
observed-result: 108
//
compound: C[C@@H]1COCCN1c1cc(C2([S@](C)(=N)=O)CC2)nc(-c2ccnc3[nH]ccc23)n1
target-entity: SNB-19 CNS
property: growth
unit-label: %
observed-result: 28
//
compound: C=C1CC[C@@H]2[C@](C)(COC(C)=O)[C@H](OC(C)=O)CC[C@@]2(C)[C@@H]1C/C=C1/C(=O)OC[C@H]1OC(C)=O
target-entity: SNB-19 CNS
property: growth
unit-label: %
observed-result: 83
//
compound: C[C@@H](C[C@H](CCO)c1cc(C(F)(F)F)cc(C(F)(F)F)c1)c1ccc2ccccc2c1
target-entity: SNB-19 CNS
property: growth
unit-label: %
observed-result: 107
//
compound: Cc1ccc(NC(=O)c2ccc(CN3CCN(C)CC3)cc2)cc1Nc1nc(-c2cccnc2)cs1
target-entity: SNB-19 CNS
property: growth
unit-label: %
observed-result: 46.3
